Property: Papp A→B at 2 h, 10 µM; scope: individual molecules
Assay: in vitro
Conditions: human, Caco-2
propertyName: Papp A→B at 2 h, 10 µM (×10⁻⁶ cm/s)

INSERT INTO assay_data (molsmiles, propertyname, testvalue) VALUES
  ('COc1c(C)cc(NC(=O)c2nn(Cc3ccc(F)cc3)c3c2CN(C(=O)c2ccc[nH]2)C[C@]3(C)C(N)=O)cc1C', 'Papp A→B at 2 h, 10 µM', 1.63),
  ('CC(=O)N1CCN(Cc2ccc([C@H](C)Nc3nccc(N4C(=O)OC[C@@H]4C(C)C)n3)cc2)CC1', 'Papp A→B at 2 h, 10 µM', 17.9),
  ('O=C(Nc1cccc(C(F)(F)F)c1)Nc1cc(S(=O)(=O)NC2CC2)ccc1-c1ccsc1', 'Papp A→B at 2 h, 10 µM', 0.85);
